# Tested target: Cathepsin B from bovine spleen (bovine, UniProt P07688 80-332)
# Measurement notes: cell-based or functional assay
Recorded endpoint: Cathepsin B inhibition test, 2 mM peptide

>>> df
                                     binder  recorded_measurement
0  Ac-Met-His-Arg-OH (also: MGO-modified, site not given here) [MGO-modified Ac-MHR-OH]                  90.1
1  Ac-Leu-Gln-Lys-OH (also: MGO-modified, site not given here) [MGO-modified Ac-LQK-OH]                  90.2
2  H-Val-Asn-Arg-OH (also: MGO-modified, site not given here) [MGO-modified H-VNR-OH]                  82.6
3             Ac-Ile-Asp-Arg-OH [Ac-IDR-OH]                  93.5
4               H-Val-Asn-Arg-OH [H-VNR-OH]                  97.8

[1] Ac-Val-Asn-Arg-OH (also: MGO-modified, site not given here) [MGO-modified Ac-VNR-OH]
[2] Ac-Val-Asn-Arg-OH [Ac-VNR-OH]
## Task Could you determine which record has the numerically smaller Cathepsin B inhibition test, 2 mM peptide? Candidates: 1 and 2 Choose, then provide that item's label.
## Result 1

Attribution: patent US20150337019A1
